- STUDY_TARGET: Glucose-6-phosphate 1-dehydrogenase (Plasmodium falciparum)
- PROTOCOL_NOTES: Inhibition of Plasmodium falciparum glucose-6-phosphate dehydrogenase after 45 mins by orthogonal assay
pIC50: −log10 of the molar value.
// label = t if pIC50 is not less than 5, otherwise f

{"columns": ["MOLECULE", "STUDY_TARGET", "DISCRETE_LABEL"],
 "data": [
  ["CCCN(CCC)CCNC(=O)c1ccc2c(c1)NC(=O)/C(=C/c1ccc(C)cc1)S2", "Glucose-6-phosphate 1-dehydrogenase (Plasmodium falciparum)", "f"],
  ["CCN(CC)CCNC(=O)c1ccc2c(c1)NC(=O)/C(=C/c1ccc(OC)c(OC)c1)S2", "Glucose-6-phosphate 1-dehydrogenase (Plasmodium falciparum)", "f"],
  ["CCN1CCC[C@@H]1CNC(=O)c1ccc2c(c1)NC(=O)/C(=C/c1ccccc1F)S2", "Glucose-6-phosphate 1-dehydrogenase (Plasmodium falciparum)", "t"],
  ["CCCN(CCC)CCNC(=O)c1ccc2c(c1)NC(=O)/C(=C/c1ccccc1)S2", "Glucose-6-phosphate 1-dehydrogenase (Plasmodium falciparum)", "f"],
  ["CCN1CCCC1CNC(=O)c1ccc2c(c1)NC(=O)/C(=C/c1cccc3ccccc13)S2 (stereo not drawn)", "Glucose-6-phosphate 1-dehydrogenase (Plasmodium falciparum)", "t"]
]}

Q: I'd appreciate it if you could say whether CCN1CCCC1CNC(=O)c1ccc2c(c1)NC(=O)/C(=C/c1ccc3ccccc3c1)S2 (stereo not drawn) has pIC50 at least equal to 5.
Ans: t

Q: I'd appreciate it if you could say whether NC1CCN(C(=O)c2ccc3c(c2)NC(=O)/C(=C/c2ccccc2F)S3)C1 (stereo not drawn) has pIC50 at least equal to 5.
Ans: f

Q: I'd appreciate it if you could say whether CCN1CCCC1CNC(=O)c1ccc2c(c1)NC(=O)/C(=C/c1ccccc1C)S2 (stereo not drawn) has pIC50 at least equal to 5.
Ans: t

Q: I'd appreciate it if you could say whether CCN1CCCC1CNC(=O)c1ccc2c(c1)NC(=O)/C(=C/c1ccc(F)cc1)S2 (stereo not drawn) has pIC50 at least equal to 5.
Ans: t

Q: I'd appreciate it if you could say whether `O=C1Nc2cc(C(=O)NCCCN3CCCC3)ccc2S/C1=C\c1ccccc1` has pIC50 at least equal to 5.
Ans: f

* * *

- STUDY_TARGET: Glucose-6-phosphate 1-dehydrogenase (Plasmodium falciparum, UniProt Q25856)
- PROTOCOL_NOTES: Inhibition of Plasmodium falciparum glucose-6-phosphate dehydrogenase after 45 mins by orthogonal assay
Please go through the items and note down their log10 of IC50.
Please keep in mind that the values are log10 of IC50 expressed in µM.

Past entries and their recorded results:
{"columns": ["COMPOUND", "log10 of IC50"],
 "data": [
  ["CCN1CCC[C@H]1CNC(=O)c1ccc2c(c1)NC(=O)/C(=C/c1ccccc1F)S2", 0.67],
  ["CCN1CCCC1CNC(=O)c1ccc2c(c1)NC(=O)/C(=C/c1ccccc1Cl)S2 (stereo not drawn)", 0.52],
  ["CCN(CC)CCNC(=O)c1ccc2c(c1)NC(=O)/C(=C/c1ccccc1F)S2 (stereo in doubt; 21)", 0.97]
]}

Need log10 of IC50 for each of these compounds.
1. CCN(CC)CCNC(=O)c1ccc2c(c1)NC(=O)/C(=C/c1ccccc1Cl)S2
2. CCN1CCCC1CNC(=O)c1ccc2c(c1)NC(=O)/C(=C/c1ccccc1F)S2 (racemic)

Ans:
1: 1.65; 2: 0.14

* * *

- STUDY_TARGET: UniProt:Q25856
- Sequence (Q25856 whole entry): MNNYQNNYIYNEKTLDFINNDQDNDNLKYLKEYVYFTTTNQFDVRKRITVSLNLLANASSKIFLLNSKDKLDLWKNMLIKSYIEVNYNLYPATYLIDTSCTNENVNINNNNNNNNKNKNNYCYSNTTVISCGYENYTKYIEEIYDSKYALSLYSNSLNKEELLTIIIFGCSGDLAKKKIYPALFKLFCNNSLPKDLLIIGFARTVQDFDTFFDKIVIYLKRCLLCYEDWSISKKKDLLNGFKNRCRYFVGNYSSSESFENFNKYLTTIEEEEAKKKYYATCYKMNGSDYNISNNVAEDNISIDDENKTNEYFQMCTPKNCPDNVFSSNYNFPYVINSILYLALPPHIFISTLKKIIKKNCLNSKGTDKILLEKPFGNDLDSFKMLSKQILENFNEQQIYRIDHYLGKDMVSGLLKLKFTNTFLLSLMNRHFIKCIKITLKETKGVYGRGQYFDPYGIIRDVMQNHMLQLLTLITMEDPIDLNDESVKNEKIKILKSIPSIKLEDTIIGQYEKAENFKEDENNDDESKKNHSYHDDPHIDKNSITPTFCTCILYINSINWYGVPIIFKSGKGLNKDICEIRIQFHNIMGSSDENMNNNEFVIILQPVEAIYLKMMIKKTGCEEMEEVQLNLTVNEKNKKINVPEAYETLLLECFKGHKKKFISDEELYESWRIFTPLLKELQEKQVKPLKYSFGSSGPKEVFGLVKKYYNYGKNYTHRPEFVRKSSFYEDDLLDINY
- PROTOCOL_NOTES: Inhibition of Plasmodium falciparum glucose-6-phosphate dehydrogenase after 45 mins by orthogonal assay
OBSERVABLE: IC50

Past entries and their recorded results:
{"columns": ["STRUCTURE_SMILES_STRING", "OBSERVABLE", "MEASURED_RESULT"],
 "data": [
  ["O=C1Nc2cc(C(=O)NCCN3CCCCCC3)ccc2S/C1=C\\c1ccccc1Cl", "IC50", "> 80 µM"],
  ["O=C1Nc2cc(C(=O)NCc3ccccc3)ccc2S/C1=C\\c1ccccc1F", "IC50", "> 80 µM"]
]}

# evaluate next
Q: Sample `COc1ccc(/C=C2\Sc3ccc(C(=O)NCCN4CCCC4)cc3NC2=O)cc1` — what was its IC50?
Ans: > 80 µM

All values here come from ChEMBL document CHEMBL2169798.
